Where do the numbers come from? From patent US11964978B2.

- experimental system: R232-STING (Homo sapiens (Human), UniProt Q86WV6, H232R)
- Sequence (Q86WV6 155-341 H232R): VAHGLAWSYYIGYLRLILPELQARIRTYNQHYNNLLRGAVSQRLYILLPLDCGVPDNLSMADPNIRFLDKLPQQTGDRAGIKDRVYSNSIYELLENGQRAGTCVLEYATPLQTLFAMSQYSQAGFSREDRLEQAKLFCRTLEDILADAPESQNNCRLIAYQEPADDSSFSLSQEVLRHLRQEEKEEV
- reported conditions: read-out: R232-STING SPA-IC50 Ki; STING residues 155-341, 100 nM 3H-cGAMP; KI from IC50 with Cheng-Prusoff equation
A collection of compounds and their measured pKi
Worth noting: pKi values are minus log10 of concentrations stated in mol/L.

record smiles	pKi
CCc1nn(C)cc1-c1cn(C)c(-c2nc(C(N)=O)cc3c2cnn3C)n1	6.45
CCn1cc(-c2cc(C)nn2CCCOC)nc1-c1nc(C(N)=O)cc2c1cnn2C	7.82
CCn1nc(C)c(F)c1-c1cn(C)c(-c2nc(C(N)=O)cc3c2cnn3C)n1	8.62
CCn1nc(C)cc1-c1cn(C)c(-c2nc(C(N)=O)cc3c2cnn3CC)n1	7.92

Request: // lookup pKi | system=R232-STING (Homo sapiens (Human), UniProt Q86WV6, H232R) | key= `CCc1nc(C)cn1-c1cn(C)c(-c2nc(C(N)=O)cc3c2cnn3C)n1`
Result: 7.06

###

- experimental system: R232-STING (Homo sapiens (Human), UniProt Q86WV6, H232R)
- reported conditions: read-out: R232-STING SPA-IC50 Ki; STING residues 155-341, 100 nM 3H-cGAMP; KI from IC50 with Cheng-Prusoff equation
Listed below: Ki values for each entry.
Just the number in nM, nothing appended.

Please review the following examples before continuing.
record smiles	experimental system	Ki, nM
COCCn1nc(C)cc1-c1cn(C)c(-c2nc(C(N)=O)cc3c2cnn3C)n1	R232-STING (Homo sapiens (Human), UniProt Q86WV6, H232R)	54.6
CCn1nccc1-c1cn(C)c(-c2nc(C(N)=O)cc3c2cnn3C)n1	R232-STING (Homo sapiens (Human), UniProt Q86WV6, H232R)	93.3

Request: Param item = `CCn1cc(-c2cc(C)nn2CCCO)nc1-c1nc(C(N)=O)cc2c1cnn2C` ; retrieve measured Ki.
Result: 12.7

Request: Param item = `Cc1cc(-c2cn(C)c(-c3nc(C(N)=O)cc4c3cnn4C)n2)n(CC(N)=O)n1` ; retrieve measured Ki.
Result: 161

Request: So what does the record say about Ki for `COCCCn1nc(C)cc1-c1cn(C)c(-c2nc(C(N)=O)cc3c2cnn3C2CC2)n1` ?
Result: 4.6

Request: // returns reported Ki for input `CCn1ncc2c(-c3nc(-c4cc(C)nn4CCCOC)cn3C)nc(C(N)=O)cc21`
Result: 7.8

Request: Which value of Ki has been reported for `CCCn1nc(C)c(O)c1-c1cn(C)c(-c2nc(C(N)=O)cc3c2cnn3C)n1` in the records?
Result: 0.3

Request: Suppose we examine the molecule `Cn1cc(-c2ccnn2C)nc1-c1nc(C(N)=O)cc2c1cnn2C` ; what Ki value has been reported?
Result: 151

Request: Find the recorded Ki belonging to `CCn1nc(C)c(O)c1-c1cn(C)c(-c2nc(C(N)=O)cc3c2cnn3CC)n1` and report it.
Result: 2.9

Request: // query Ki value for entry `CCn1cc(-c2c(O)c(C)nn2CC)nc1-c1nc(C(N)=O)cc2c1cnn2C`
Result: 2.9

###

- experimental system: R232-STING (Homo sapiens (Human), UniProt Q86WV6, H232R)
- reported conditions: read-out: R232-STING SPA-IC50 Ki; STING residues 155-341, 100 nM 3H-cGAMP; KI from IC50 with Cheng-Prusoff equation
pKi: −log10 of the molar value.
readout type: pKi

Worked cases, answers included:
compound	result value
CCn1nc(C)c(Cl)c1-c1cn(C)c(-c2nc(C(N)=O)cc3c2cnn3C)n1 [AIF08]	< 6.00
Cc1cc(-c2cn(C)c(-c3nc(C(N)=O)cc4c3cnn4C)n2)n(CCC(F)(F)F)n1 [AIF05]	< 6.00

Request: Could you tell me which pKi is on file for CCn1nc(C(F)(F)F)cc1-c1cn(C)c(-c2nc(C(N)=O)cc3c2cnn3C)n1 [AIF09] ?
Result: < 6.00
